Hi there, I'd appreciate the recorded IC50 for every entry that follows.
target: Tyrosine-protein kinase BTK (Homo sapiens); assay: Inhibition of BTK in human Ramos B cells assessed as reduction in goat anti human IgM-stimulated calcium flux preincubated for 1 hr followed by goat anti human IgM addition and measured for 180 secs by FLIPR assay; type: cell-based
Sequence (Q06187 whole entry): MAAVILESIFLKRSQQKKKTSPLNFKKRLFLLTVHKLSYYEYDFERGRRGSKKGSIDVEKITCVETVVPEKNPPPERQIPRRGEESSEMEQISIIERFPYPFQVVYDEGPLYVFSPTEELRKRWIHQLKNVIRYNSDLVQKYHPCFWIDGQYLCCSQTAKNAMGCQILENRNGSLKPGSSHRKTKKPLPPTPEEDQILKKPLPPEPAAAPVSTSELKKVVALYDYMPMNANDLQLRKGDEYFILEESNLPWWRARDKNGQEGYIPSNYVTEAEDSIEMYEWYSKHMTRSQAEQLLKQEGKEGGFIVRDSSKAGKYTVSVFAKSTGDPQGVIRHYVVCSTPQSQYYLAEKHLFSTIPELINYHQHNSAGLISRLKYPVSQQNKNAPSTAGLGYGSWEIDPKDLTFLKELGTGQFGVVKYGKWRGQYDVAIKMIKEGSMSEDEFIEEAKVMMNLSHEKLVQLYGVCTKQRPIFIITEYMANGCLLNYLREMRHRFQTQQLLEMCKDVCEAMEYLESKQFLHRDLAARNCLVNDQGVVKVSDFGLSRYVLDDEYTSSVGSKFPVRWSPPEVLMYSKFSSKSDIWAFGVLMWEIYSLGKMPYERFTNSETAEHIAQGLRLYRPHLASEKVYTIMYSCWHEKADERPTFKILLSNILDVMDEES
Could you write the number and then its unit?

[in] Please state recorded IC50 (tested on Tyrosine-protein kinase BTK (Homo sapiens)) of Cc1c(-c2ccc(C(N)=O)c3[nH]c4cc(C(C)(C)O)ccc4c23)cccc1-n1c(=O)cc2cc(Cl)ccn2c1=O
[out] 3.1 nM

[in] Please state recorded IC50 (tested on Tyrosine-protein kinase BTK (Homo sapiens)) of COc1cccn2c(=O)n(-c3cccc(-c4ccc(C(N)=O)c5[nH]c6cc(C(C)(C)O)ccc6c45)c3C)c(=O)cc12
[out] 19 nM

[in] Please state recorded IC50 (tested on Tyrosine-protein kinase BTK (Homo sapiens)) of COc1ccn2c(=O)n(-c3cccc(-c4ccc(C(N)=O)c5[nH]c6cc(C(C)(C)O)ccc6c45)c3C)c(=O)cc2c1
[out] 19 nM

---

test: Cmax in mouse at 10 mg/kg, PO; format: ADME, organism-based; set-up: route oral, dose 10 mg/kg; details: in vivo
Hi there, I'd appreciate the recorded Cmax for every entry that follows.
All answers are understood in nM, so give the number only.

[in] Query: Cmax; subject: COc1ccn2c(=O)n(-c3cccc(-c4ccc(C(N)=O)c5[nH]c6cc(C(C)(C)O)ccc6c45)c3C)c(=O)cc2c1
[out] 1300

[in] Query: Cmax; subject: COc1cccn2c(=O)n(-c3cccc(-c4ccc(C(N)=O)c5[nH]c6cc(C(C)(C)O)ccc6c45)c3C)c(=O)cc12
[out] 1300

[in] Query: Cmax; subject: Cc1c(-c2ccc(C(N)=O)c3[nH]c4cc(C(C)(C)O)ccc4c23)cccc1-n1c(=O)cc2c(F)cccn2c1=O
[out] 5200

[in] Query: Cmax; subject: Cc1c(-c2ccc(C(N)=O)c3[nH]c4cc(C(C)(C)O)ccc4c23)cccc1-n1c(=O)cc2c(Cl)cccn2c1=O
[out] 3500

---

experiment: Stability of the compound in human whole blood assessed drug degradation at 0.5 uM incubated for 10 mins; type: ADME, tissue-based; conditions: read-out: Drug degradation
outcomeMeasure: metabolised at 10 min, 0.5 µM

[in] Query: metabolised at 10 min, 0.5 µM; subject: Cc1c(-c2ccc(C(N)=O)c3[nH]c4cc(C(C)(C)O)ccc4c23)cccc1-n1c(=O)cc2cc(Cl)ccn2c1=O
[out] > 85%

---

molecular target: Tyrosine-protein kinase BTK (Homo sapiens); test: Inhibition of recombinant full-length His-tagged human BTK expressed in baculovirus expression system using fluoresceinated peptide as substrate incubated for 60 mins by fluorescence assay
Hi there, I'd appreciate the recorded IC50 for every entry that follows.
All answers are understood in nM, so give the number only.

[in] Query: IC50; subject: Cc1c(-c2ccc(C(N)=O)c3[nH]c4cc(C(C)(C)O)ccc4c23)cccc1-n1c(=O)cc2cc(Cl)ccn2c1=O
[out] 0.49

[in] Query: IC50; subject: Cc1c(-c2ccc(C(N)=O)c3[nH]c4cc(C(C)(C)O)ccc4c23)cccc1-n1c(=O)cc2c(F)cccn2c1=O
[out] 0.86

---

assay: Stability of the compound in human whole blood assessed drug degradation at 0.5 uM incubated for 2 hrs; type: ADME, tissue-based; conditions: read-out: Drug degradation
outcomeMeasure: metabolised at 2 h, 0.5 µM (%)
All answers are understood in %, so give the number only.

[in] Query: metabolised at 2 h, 0.5 µM; subject: Cc1c(-c2ccc(C(N)=O)c3[nH]c4cc(C(C)(C)O)ccc4c23)cccc1-n1c(=O)cc2cc(Cl)ccn2c1=O
[out] 100
